The measured values listed here are drawn from paper PMC10683472.

Target: IRAK4 (Homo sapiens)
Sequence (Q9NWZ3 1-460): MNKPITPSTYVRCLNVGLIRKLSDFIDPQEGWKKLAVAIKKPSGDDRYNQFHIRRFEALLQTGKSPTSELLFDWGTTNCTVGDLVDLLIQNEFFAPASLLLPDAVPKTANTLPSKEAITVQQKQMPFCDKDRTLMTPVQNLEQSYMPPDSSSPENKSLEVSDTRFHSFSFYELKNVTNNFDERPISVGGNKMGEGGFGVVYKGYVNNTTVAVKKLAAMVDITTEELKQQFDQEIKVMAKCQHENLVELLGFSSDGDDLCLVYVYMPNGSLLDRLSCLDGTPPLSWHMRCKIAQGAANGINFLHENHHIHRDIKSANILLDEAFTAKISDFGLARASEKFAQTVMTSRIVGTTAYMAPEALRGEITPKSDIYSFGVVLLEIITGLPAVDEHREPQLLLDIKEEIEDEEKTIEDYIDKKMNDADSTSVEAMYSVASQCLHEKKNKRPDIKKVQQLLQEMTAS
Assay: mRNA display affinity selection against IRAK4, NGS abundance
Type: binding
Parameters: acids 1-460; NP_057207.2) was purchased from Carna Biosciences; purchased Carna Biosciences (Kobe, Japan)
Conditions: IRAK4 selection pulldown (-); Top100 selection hits, NGS
Classification field: y = Raw reads at or over 40; n = Raw reads under 40.

As a guide, the following entries are already answered.
[
  {
    "sequenceEntry": "SQRWRNRNYR",
    "qualitativeLabel": "y"
  },
  {
    "sequenceEntry": "SLLWRKRIYR",
    "qualitativeLabel": "y"
  },
  {
    "sequenceEntry": "SMQRRVIKWTWA",
    "qualitativeLabel": "n"
  },
  {
    "sequenceEntry": "SLLWKKRMYK",
    "qualitativeLabel": "n"
  }
]

State whether the measured Raw reads reaches 40, counting equality as reaching it, for GMKRQFITWHWT
n

State whether the measured Raw reads reaches 40, counting equality as reaching it, for RQRWRGRKYH
n

State whether the measured Raw reads reaches 40, counting equality as reaching it, for TQRWNNRNWC
n

----------
Reported Raw reads values are given for each entry in this list.
Target: TLR10 (Homo sapiens, UniProt Q9BXR5)
Sequence (Q9BXR5 20-576): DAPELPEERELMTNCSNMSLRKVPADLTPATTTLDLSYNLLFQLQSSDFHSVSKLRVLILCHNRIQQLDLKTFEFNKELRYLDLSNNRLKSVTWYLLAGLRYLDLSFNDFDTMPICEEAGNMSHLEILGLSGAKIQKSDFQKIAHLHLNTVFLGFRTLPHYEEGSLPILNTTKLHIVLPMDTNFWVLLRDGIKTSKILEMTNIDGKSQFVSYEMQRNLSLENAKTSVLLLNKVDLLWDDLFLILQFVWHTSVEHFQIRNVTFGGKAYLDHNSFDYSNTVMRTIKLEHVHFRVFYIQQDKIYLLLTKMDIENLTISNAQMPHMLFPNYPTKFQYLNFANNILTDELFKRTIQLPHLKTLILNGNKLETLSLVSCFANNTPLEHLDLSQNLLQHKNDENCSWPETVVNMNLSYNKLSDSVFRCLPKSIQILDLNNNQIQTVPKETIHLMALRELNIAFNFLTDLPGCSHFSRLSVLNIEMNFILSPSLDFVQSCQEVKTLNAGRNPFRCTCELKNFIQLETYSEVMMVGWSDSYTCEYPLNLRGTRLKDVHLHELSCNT
Assay: mRNA display affinity selection against TLR10, NGS abundance
Format: binding
Parameters: Chimera protein (extracellular domain, amino acid 20-576;); Fc (chimera); purchased R&D system #6619-TR-050
Conditions: TLR10 selection pulldown (+); Top100 selection hits, NGS

[
  {
    "sequenceEntry": "SSPNRYGGNVNT",
    "targetSystem": "TLR10 (Homo sapiens, UniProt Q9BXR5)",
    "Raw reads": 119
  }
]

Quote Raw reads reported for VGYVLVKSS please.
32

Quote Raw reads reported for TLELQSVVLH please.
32

Quote Raw reads reported for SIYFEKAEKVAF please.
69

Quote Raw reads reported for IGRLYIKSS please.
304

Quote Raw reads reported for AVEFRLQRAIAY please.
159

Quote Raw reads reported for SIWFPLQRKIAA please.
727

Quote Raw reads reported for TMMFPRLGKVAY please.
515

Quote Raw reads reported for WPGSMARDSIS please.
1282

Quote Raw reads reported for VQLHRWGLRM please.
31
